Data provenance is PubChem BioAssay (NCATS).

- Test system: ECU
- MEASUREMENT_NOTES: qHTS profiling for inhibitors of Plasmodium falciparum proliferation (AID 504749); further: nearly all actives have a fitted effect of over 60% in size
- MEASUREMENT_SETUP: P. falciparum in erythrocytes, SYBR Green DNA, 72 h; series mostly up to 28.7 µM
Records with an inconclusive call do not appear. The source made the active and inactive calls. The call rests on the fitted dose curve; in most records, active means well fitted inhibition curve with a large enough effect; inconclusive means small, poorly fitted or top-dose-only effect; inactive means flat fitted curve, though single readings scatter.
A correct response names exactly one class from active, inactive

Use the examples below as a reference point.
- COMPOUND: "OCC1O[C@@H](O[C@@H]2C(CO)OC(O)C(O)C2O)C(O)C(O)C1O (stereo partly specified)"
  ANSWER_LABEL: "inactive"
- COMPOUND: "CC(=O)O[C@]1(C(C)=O)CCC2C3CCC4=CC(=O)CCC4(C)C3(F)C(O)CC21C (stereo partly specified)"
  ANSWER_LABEL: "inactive"
- COMPOUND: "CO/N=C(/C(=O)N[C@@H]1C(=O)N2C(C(=O)O)=C(CSc3nnnn3C)CS[C@H]12)c1csc(N)n1"
  ANSWER_LABEL: "inactive"
- COMPOUND: "C=C[C@H]1CN2CCC1C[C@H]2[C@H](O)c1ccnc2ccc(OC)cc12 (stereo partly specified)"
  ANSWER_LABEL: "active"
- COMPOUND: "CNC(=O)C(N)CSC(C)C1=C(C)c2cc3[n-]c(cc4nc(cc5[n-]c(cc1n2)c(C)c5CCC(=O)O)C(CCC(=O)O)=C4C)c(C)c3C(C)SCC(N)C(=O)NC.[Fe+2] (stereo unspecified)"
  ANSWER_LABEL: "inactive"
- COMPOUND: "CCN(CC)CCOCCOC(=O)C(CC)(CC)c1ccccc1 (tested in a mixture with another compound)"
  ANSWER_LABEL: "inactive"
- COMPOUND: "NC(C(=O)O)c1ccc(O)cc1 (stereo unspecified)"
  ANSWER_LABEL: "inactive"
- COMPOUND: "C[C@]12CC[C@@H]3c4ccc(O)cc4CC[C@H]3[C@@H]1CCC2OC(=O)CCC1CCCC1 (stereo partly specified)"
  ANSWER_LABEL: "inactive"

Turning to the following compound.
So what was the verdict on C=CCn1c(=O)n(C2OC(CO)C(O)C2O)c2nc(N)[nH]c(=O)c21 (stereo unspecified) in this test?
inactive

* * *

- MEASUREMENT_NOTES: Cellular Toxicity (caspase-3) SK-N-SH (AID 661);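 further: cells exposed to compound for 16 hours; 0% = DMSO basal and 100% = 10 µM staurosporine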
- MEASUREMENT_SETUP: SK-N-SH caspase-3 activation, qHTS; at 91.7 µM (top of the series), DMSO as zero, staurosporine as full
Please go through the items and note down their caspase-3 activation.
One number for each entry, in %.

See these solved cases before continuing.
- COMPOUND_STRUCTURE_STRING: "Cc1cc(Nc2ccc(O)cc2)ccc1N"
  MEASURED_RESULT: 12.7
- COMPOUND_STRUCTURE_STRING: "Cc1ccc(S(=O)(=O)Oc2ccc(N=Nc3ccc(-c4ccc(N=Nc5c(O)ccc6cc(S(=O)(=O)O)cc(S(=O)(=O)O)c56)c(C)c4)cc3C)cc2)cc1"
  MEASURED_RESULT: -0.915
- COMPOUND_STRUCTURE_STRING: "CC(=O)Nc1ccc(C(=O)CCl)cc1"
  MEASURED_RESULT: -5.98
- COMPOUND_STRUCTURE_STRING: "c1ccc2c(c1)ccc1cc3c(ccc4ccccc43)cc12"
  MEASURED_RESULT: -0.556

List caspase-3 activation for every entry below, keeping the order given.
1. C=CC(=O)OCC(CO)(COC(=O)C=C)COC(=O)C=C
2. CN(C)c1ccc(C2(c3ccc(N(C)C)cc3)OC(=O)c3cc(N(C)C)ccc32)cc1
3. O=C(OCC(COC(=O)c1ccccc1)(COC(=O)c1ccccc1)COC(=O)c1ccccc1)c1ccccc1
4. CNc1ccc(O)cc1
5. O=Cc1ccc(Cl)c(Cl)c1

-3.53
-0.0609
-0.121
-7.58
1.15
